The following compounds are shown together with reported AUC(0-t) values.
Test description: in vivo
Study conditions: male, CD-1, mouse, iv, 2 mg/kg
Endpoint label: AUC(0-t)

[[record]]
test_smiles = "CC[C@@]1(O)C(=O)OCc2c1cc1n(c2=O)Cc2c-1c(=O)c1cc(F)ccc1n2[C@@H]1CCN(CCO)C1"
result = "674 ng·h/mL"

[[record]]
test_smiles = "CC[C@@]1(O)C(=O)OCc2c1cc1n(c2=O)Cc2c-1c(=O)c1cc(F)ccc1n2[C@@H]1CCN(C)C1"
result = "543 ng·h/mL"


---

The following compounds are shown together with reported AUC(0-t) at 24 h values.
Test description: Pharmacokinetic study in mice, plasma concentrations by LC-MS/MS
Study conditions: mouse, in vivo, po, 10 mg/kg
Endpoint label: AUC(0-t) at 24 h (ng·h/mL)

[[record]]
test_smiles = "CC[C@@]1(O)C(=O)OCc2c1cc1n(c2=O)Cc2c-1nc1cc(F)c(C)c3c1c2[C@@H](NC(=O)CO)CC3"
endpoint_label = "AUC(0-t) at 24 h"
numeric_readout = 4.32

[[record]]
test_smiles = "CC[C@@]1(O)C(=O)OCc2c1cc1n(c2=O)Cc2c-1c(=O)c1cc(F)ccc1n2CCN(C)C1CC1"
endpoint_label = "AUC(0-t) at 24 h"
numeric_readout = 395


---

Test description: in vivo
Study conditions: male, CD-1, mouse, iv, 1 mg/kg
Endpoint label: AUC(0-t) (ng·h/mL)

[[record]]
test_smiles = "CC[C@@]1(O)C(=O)OCc2c1cc1n(c2=O)Cc2c-1c(=O)c1cc(F)ccc1n2[C@@H]1CCN(CC2CC2)C1"
endpoint_label = "AUC(0-t)"
unit_descriptor = "ng·h/mL"
numeric_readout = 524

[[record]]
test_smiles = "CC[C@@]1(O)C(=O)OCc2c1cc1n(c2=O)Cc2c-1c(=O)c1cc(F)ccc1n2[C@@H]1CCN(C2CCCC2)C1"
endpoint_label = "AUC(0-t)"
unit_descriptor = "ng·h/mL"
numeric_readout = 352


---

Test description: in vivo
Study conditions: mouse, iv, 1 mg/kg
Endpoint label: Cmax

[[record]]
test_smiles = "CCc1c2c(nc3ccc(O)cc13)-c1cc3c(c(=O)n1C2)COC(=O)[C@]3(O)CC"
endpoint_label = "Cmax"
result = "278 ng/mL"


---

The following compounds are shown together with reported AUC(0-t) values.
Test description: in vivo
Study conditions: male, CD-1, mouse, po, 20 mg/kg
Endpoint label: AUC(0-t)

[[record]]
compound = "CC[C@@]1(O)C(=O)OCc2c1cc1n(c2=O)Cc2c-1c(=O)c1cc(F)ccc1n2[C@@H]1CCN(CCO)C1 [Example 252]"
endpoint_label = "AUC(0-t)"
result = "2820 ng·h/mL"

[[record]]
compound = "CC[C@@]1(O)C(=O)OCc2c1cc1n(c2=O)Cc2c-1c(=O)c1cc(F)ccc1n2[C@@H]1CCN(C)C1 [Example 250]"
endpoint_label = "AUC(0-t)"
result = "1930 ng·h/mL"


---

Test description: in vivo
Study conditions: male, CD-1, mouse, iv, 1 mg/kg
Endpoint label: half-life (h)

[[record]]
test_smiles = "CC[C@@]1(O)C(=O)OCc2c1cc1n(c2=O)Cc2c-1c(=O)c1cc(F)ccc1n2[C@@H]1CCN(CC2CC2)C1"
endpoint_label = "half-life"
unit_descriptor = "h"
numeric_readout = 0.96

[[record]]
test_smiles = "CC[C@@]1(O)C(=O)OCc2c1cc1n(c2=O)Cc2c-1c(=O)c1cc(F)ccc1n2[C@@H]1CCN(C2CCCC2)C1"
endpoint_label = "half-life"
unit_descriptor = "h"
numeric_readout = 1.24


src = patent EP4778929A1
